organism: Rattus norvegicus; experiment: Analgesic activity in Rattus norvegicus Wistar (rat) assessed as tail flick latency time after 90 min by tail immersion test (reference value: 3.25 +/- 0.005 secs); type: functional
Values of Time greater than or equal to 7 s map to fulfilled; values below map to not fulfilled.

> print(dat)
                               query.smiles  class.assignment
1  CCOC(=O)C1=C(C)NC(C)=C(C(=O)OCC)C1c1ccc(OCC(=O)NNC(=O)c2ccsc2Cl)cc1     not fulfilled
2  CCOC(=O)C1=C(C)NC(C)=C(C(=O)OCC)C1c1ccc(OCC(=O)n2nc(C)cc2C)cc1     not fulfilled
3    O=C([O-])Cc1ccccc1Nc1c(Cl)cccc1Cl.[K+]         fulfilled
4  CCOC(=O)C1=C(C)NC(C)=C(C(=O)OCC)C1c1ccc(OCC(=O)NNC(=O)c2sccc2Cl)cc1     not fulfilled
5  CCOC(=O)C1=C(C)NC(C)=C(C(=O)OCC)C1c1ccc(OCC(=O)NNC(=O)c2ccccc2)cc1     not fulfilled

---

organism: Rattus norvegicus; test: Analgesic activity in Rattus norvegicus Wistar (rat) assessed as tail flick latency time after 90 min by tail immersion test (reference value: 3.25 +/- 0.005 secs); type: functional
compounds and their reported Time
Endpoint: Time (s)

> print(dat)
                               query.smiles  observed.result
1  CCOC(=O)C1=C(C)NC(C)=C(C(=O)OCC)C1c1ccc(OCc2nnc(S)o2)cc1             6.97
2  CCOC(=O)C1=C(C)NC(C)=C(C(=O)OCC)C1c1ccc(OCC(=O)NN2C(=O)c3ccccc3C2=O)cc1             7.21
3  CCOC(=O)C1=C(C)NC(C)=C(C(=O)OCC)C1c1ccc(OCC(=O)NNC(=O)c2cccs2)cc1             7.02
4  CCOC(=O)C1=C(C)NC(C)=C(C(=O)OCC)C1c1ccc(OCC(=O)NNC(=O)CCC(=O)O)cc1             6.87
